meta.source: patent US20240376221A1

Each item that follows carries a reported corrected association response.
- tested target: recombinant human OX40 (Acro Biosystems, cat. no. OXO-H5224) (human) (UniProt P43489)
- Sequence (P43489 29-216 limits assumed): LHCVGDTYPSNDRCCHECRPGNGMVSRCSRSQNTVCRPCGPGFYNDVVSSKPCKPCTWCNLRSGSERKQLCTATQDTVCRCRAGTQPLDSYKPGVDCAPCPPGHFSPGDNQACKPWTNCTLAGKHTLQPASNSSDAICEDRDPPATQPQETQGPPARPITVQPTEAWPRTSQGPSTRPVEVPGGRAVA
- assay remarks: BLI cross-block; competitor (immobilized 1st Ab): IgG1-CD134-A4453
Express it in nm; write the number only.

IgG1-CD134-GBR830 (antibody, INN chains, looked up, V domains shown, IgG1) VH: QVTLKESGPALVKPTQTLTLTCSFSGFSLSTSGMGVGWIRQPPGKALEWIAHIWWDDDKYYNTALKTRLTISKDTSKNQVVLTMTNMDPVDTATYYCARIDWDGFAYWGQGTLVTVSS VL: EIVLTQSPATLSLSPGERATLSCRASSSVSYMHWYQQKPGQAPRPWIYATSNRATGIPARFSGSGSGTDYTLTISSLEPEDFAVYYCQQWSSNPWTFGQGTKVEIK    0.28

For the binder IgG1-CD134-MEDI0562 (antibody, INN chains, looked up, V domains shown, IgG1) VH: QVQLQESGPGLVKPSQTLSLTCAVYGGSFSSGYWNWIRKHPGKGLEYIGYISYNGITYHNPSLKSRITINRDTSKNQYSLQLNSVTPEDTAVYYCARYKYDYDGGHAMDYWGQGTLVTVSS VL: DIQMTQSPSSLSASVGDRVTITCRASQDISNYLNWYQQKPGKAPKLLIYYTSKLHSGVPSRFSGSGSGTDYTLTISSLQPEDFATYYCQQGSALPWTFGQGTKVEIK , what corrected association response is on record?
0.41

Give the measured corrected association response of IgG1-CD134-RG7888 (antibody, INN chains, looked up, V domains shown, IgG1) VH: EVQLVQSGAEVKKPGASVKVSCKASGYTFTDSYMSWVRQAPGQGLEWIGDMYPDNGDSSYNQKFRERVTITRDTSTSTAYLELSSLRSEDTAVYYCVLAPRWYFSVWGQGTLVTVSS VL: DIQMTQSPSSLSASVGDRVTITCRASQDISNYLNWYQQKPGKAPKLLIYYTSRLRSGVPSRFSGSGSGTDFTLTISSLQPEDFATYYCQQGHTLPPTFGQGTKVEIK .
0.47

Dear colleague, I am looking for the recorded corrected association response of the following binder: IgG1-CD134-ABBV368 (antibody, INN chains, looked up, V domains shown, IgG1) VH: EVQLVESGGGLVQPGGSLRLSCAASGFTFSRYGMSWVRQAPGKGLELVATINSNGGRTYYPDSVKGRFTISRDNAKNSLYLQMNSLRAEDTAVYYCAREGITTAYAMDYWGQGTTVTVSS VL: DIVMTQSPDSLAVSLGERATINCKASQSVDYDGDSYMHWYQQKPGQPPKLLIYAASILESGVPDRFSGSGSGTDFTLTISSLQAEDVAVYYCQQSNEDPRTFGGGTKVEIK
0.29
